study.target: T1, human amylin receptor (AMY3) on CHO-K1/Ga15/AMY3 cells (human, UniProt P30988 25-474; O60896 24-148)
T1 sequence (looked up) 1: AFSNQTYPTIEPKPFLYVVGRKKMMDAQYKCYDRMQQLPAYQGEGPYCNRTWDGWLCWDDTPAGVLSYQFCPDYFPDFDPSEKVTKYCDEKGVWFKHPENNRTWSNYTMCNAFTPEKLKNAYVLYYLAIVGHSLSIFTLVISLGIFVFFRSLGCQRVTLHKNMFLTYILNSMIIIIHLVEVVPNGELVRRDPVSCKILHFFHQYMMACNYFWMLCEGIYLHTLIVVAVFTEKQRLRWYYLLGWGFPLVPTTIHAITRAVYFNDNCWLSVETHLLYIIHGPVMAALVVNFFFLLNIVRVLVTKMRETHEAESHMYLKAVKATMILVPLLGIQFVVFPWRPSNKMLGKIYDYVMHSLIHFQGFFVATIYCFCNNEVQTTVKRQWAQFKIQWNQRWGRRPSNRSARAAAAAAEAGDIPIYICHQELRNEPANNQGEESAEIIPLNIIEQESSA
T1 sequence (looked up) 2: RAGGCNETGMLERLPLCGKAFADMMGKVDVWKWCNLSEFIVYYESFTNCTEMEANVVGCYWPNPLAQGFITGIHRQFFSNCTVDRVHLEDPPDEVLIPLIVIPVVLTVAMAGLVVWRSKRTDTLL
measurement.notes: cell-based or functional assay
*1 amine or outer side, *2 acyl side, *3 side chain or, on linkers, in order; H or OH if unused. Bridges are numbered along the chain shown (N, C = ends). Where no end group is shown, it is not given here. Side-chain parts run from the residue outwards. [ ]: non-standard residue; d: D form. The star is where a group is joined. C20 diacid = O=C(O)CCCCCCCCCCCCCCCCCCC(=O)*; γGlu = O=C(O)[C@H](CCC(=O)[*:2])N[*:1]; Hyp = O=C(O)[C@@H]1C[C@@H](O)CN1; AOC = not defined here; AEEA = NCCOCCOCC(=O)O
EC50, CRE-luciferase assay overview
The reply should contain only the number, in nM.

// below: answered binders
# binder, measurement.unit, EC50, CRE-luciferase assay
records = [
    ("{C20 diacid-γGlu}-RCNTATCATQRLADFLRHSSNNLRPILPPTNVGSNTP-NH2 (disulfide 2-7 (inferred)) [PD197]", "nM", 0.025),
    ("{C20 diacid-γGlu}-KCNTATCATQRLADFLRHSSNNL[AOC]PILPPTNVGSNTP-NH2 (disulfide 2-7 (inferred); reading uncertain) [PD174]", "nM", 0.046),
    ("RCNTATCATQRLADFLRHSSNK([AEEA-γGlu-C20 diacid])LGPILPPTNVGSNT[Hyp]-NH2 (disulfide 2-7 (inferred)) [PD112]", "nM", 0.03),
]

Now look at this entry.
stdin: Query EC50, CRE-luciferase assay for KCNTATCATQRLADFLRHSSNNLK([γGlu-C20 diacid])PILPPTNVGSNT[Hyp]-NH2 (disulfide 2-7 (inferred)) [PD076]
stdout: 0.04

Sourced from patent US20260115256A1
